Assay read-out pIC50 on TBK1 (Homo sapiens, UniProt Q9UHD2); records merged from the literature.
Sequence (Q9UHD2 whole entry): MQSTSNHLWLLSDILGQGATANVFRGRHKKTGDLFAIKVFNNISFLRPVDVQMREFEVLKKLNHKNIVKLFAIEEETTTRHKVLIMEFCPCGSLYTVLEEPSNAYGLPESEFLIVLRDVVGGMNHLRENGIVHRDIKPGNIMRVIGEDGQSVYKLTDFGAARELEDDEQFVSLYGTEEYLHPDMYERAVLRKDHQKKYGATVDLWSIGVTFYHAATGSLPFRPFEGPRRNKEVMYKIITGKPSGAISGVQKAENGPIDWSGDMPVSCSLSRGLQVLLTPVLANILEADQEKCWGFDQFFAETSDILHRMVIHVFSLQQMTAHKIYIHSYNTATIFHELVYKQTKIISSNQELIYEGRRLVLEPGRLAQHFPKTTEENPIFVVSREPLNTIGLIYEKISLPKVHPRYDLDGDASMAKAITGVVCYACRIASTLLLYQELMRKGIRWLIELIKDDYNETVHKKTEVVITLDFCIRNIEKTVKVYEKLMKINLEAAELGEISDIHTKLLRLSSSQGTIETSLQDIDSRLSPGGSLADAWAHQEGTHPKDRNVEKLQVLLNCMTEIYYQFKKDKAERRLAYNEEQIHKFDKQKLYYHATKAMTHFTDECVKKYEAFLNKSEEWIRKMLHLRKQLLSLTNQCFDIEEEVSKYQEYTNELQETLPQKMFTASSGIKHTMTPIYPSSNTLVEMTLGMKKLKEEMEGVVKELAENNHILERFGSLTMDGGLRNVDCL
// field semantics: pIC50 = negative decimal log of concentration (mol/L)

>>> print(df.to_string())
                               smiles_input  observed_measurement
0  CC(C)(C)OC(=O)N1CC=C(c2c[nH]c3ncc(-c4cccc(CN5CCOCC5)c4)cc23)CC1                  6.59
1  Nc1ncc(-c2ccc(CN3CCOCC3)s2)cc1C(=O)Nc1ccnnc1                  6.62
2  N#Cc1cc(-c2ccnc(Nc3cnn(CCO)c3)c2)ccc1OC1CCOCC1                  6.92

# input for lookup
Record Nc1ccc(-c2ccnc(Nc3cccc(F)c3)n2)c2c1C(=O)NC2 . Reported pIC50: 7.46

----------
From various publications: IC50 for TBK1 (Homo sapiens).
Field format: number, assumed nM, no unit text.

                                   molecule          measured_on  observed_measurement
0  N#Cc1cc(-c2ccnc(Nc3ccc(=O)[nH]n3)n2)ccc1OC1CCOCC1  TBK1 (Homo sapiens)                  1600
1  Cc1ccc(Nc2nccc(-c3ccc(N)c4c3CNC4=O)n2)cc1  TBK1 (Homo sapiens)                   380
2  CC(C)(C)OC(=O)N1CC=C(c2c[nH]c3ncc(-c4ccc(S(N)(=O)=O)cc4)cc23)CC1  TBK1 (Homo sapiens)                    81
3  CCC(CC)NC(=O)N1CCC(c2c[nH]c3ncc(-c4ccc(CN5CCN(C)CC5)s4)cc23)=CC1C (stereo not shown)  TBK1 (Homo sapiens)                    46

Per the reported TBK1 (Homo sapiens) data, CN(C)CCNCc1ccc(C(=O)Nc2sc(-c3ccncc3)nc2C(N)=O)cc1 has IC50 of 210

Considering COc1cccc(Nc2nccc(-c3ccc(NC(C)=O)c4c3CNC4=O)n2)c1 , its IC50 with TBK1 (Homo sapiens) was recorded as 100

The molecule CC1CN(C(=O)NC2CCCC2)CC=C1c1c[nH]c2ncc(-c3cccc(S(C)(=O)=O)c3)cc12 (stereo not shown) , when measured on TBK1 (Homo sapiens), yielded IC50 of 36

TBK1 (Homo sapiens) assay, molecule O=C(c1cccs1)N1CC=C(c2c[nH]c3ncc(-c4cccc(S(=O)(=O)N5CCOCC5)c4)cc23)CC1 , recorded IC50 = 230

Known value: TBK1 (Homo sapiens) IC50 of the molecule N#Cc1cc(-c2ccnc(Nc3cc(C4=CCCCO4)ccn3)c2)ccc1OC1CCOCC1 equals 290

Form: item O=C(c1cccs1)N1CC=C(c2c[nH]c3ncc(-c4ccc(CN5CCOCC5)s4)cc23)CC1 ; test system TBK1 (Homo sapiens); IC50: 49

----------
Across several publications, the following pIC50 results were reported for TBK1 (Homo sapiens, UniProt Q9UHD2).
pIC50 is a log-scale quantity: -log10 of the concentration expressed in molar.

Entry CC(C)(C)c1cc(Nc2cc(-c3ccc(OC4CCOCC4)c(C#N)c3)ccn2)on1 , tested on TBK1 (Homo sapiens, UniProt Q9UHD2), has a reported pIC50 of 6.07

Let me check: Cn1cccc1-c1cnc(N)c(C(=O)Nc2ccncc2)c1 , system TBK1 (Homo sapiens, UniProt Q9UHD2), measured pIC50 is 6.49

Bench note, TBK1 (Homo sapiens, UniProt Q9UHD2): CN1CC=C(c2c[nH]c3ncc(-c4ccc(CN5CCOCC5)s4)cc23)CC1 , pIC50 reads 5.16

# Cc1ccc(C(=O)Nc2sc(-c3ccncc3)nc2C(N)=O)cc1 with TBK1 (Homo sapiens, UniProt Q9UHD2): pIC50 is 5.00

Case CNC(=O)CCCCc1ccc(C(=O)Nc2sc(-c3ccncc3)nc2C(N)=O)cc1 , TBK1 (Homo sapiens, UniProt Q9UHD2), pIC50 recorded as 6.62

----------
// molecules with reported IC50 on TBK1 (Homo sapiens), multi-publication
Please give a number only; it is taken to be in nM.

Worked set:
>>> df
                                   molecule  measurement_units  observed_measurement
0  N#Cc1cc(-c2ccnc(Nc3cn[nH]c3)c2)ccc1OCC1CCC1                 nM                   380
1  O=C(c1cccc(-c2cnc3[nH]cc(C4=CCN(C(=O)c5cccs5)CC4)c3c2)c1)N1CCOCC1                 nM                   190
2  CC(C)NC(=O)N1CCC(c2c[nH]c3ncc(-c4ccc(CN5CCOCC5)s4)cc23)=CC1(C)C                 nM                   5.9
3  N#Cc1cc(-c2ccnc(Nc3ccc(CO)cn3)c2)ccc1OC1CCOCC1                 nM                    14
4  CN1CCN(Cc2ccc(C(=O)Nc3sc(-c4ccncc4)nc3C#N)cc2)CC1                 nM                  8200
5  CN1CCN(Cc2ccc(C(=O)Nc3sc(-c4ccncc4F)nc3C(N)=O)cc2)CC1                 nM                   370
6  O=C(NC1CCCC1)N1CC=C(c2c[nH]c3ncc(-c4ccc(S(=O)(=O)C5CC5)cc4)cc23)CC1                 nM                    58
7  Cc1cccc(Nc2nccc(-c3ccc(N)c4c3CNC4=O)n2)c1                 nM                   200
8  COc1ccc(Nc2nccc(-c3ccc(N)c4c3CNC4=O)n2)cc1                 nM                   110
9  N#Cc1cc(-c2ccnc(Nc3cnn(C[C@H]4C[C@@H]4CO)c3)n2)ccc1OC1CCOCC1                 nM                     6

COCCCn1cc(Nc2cc(-c3ccc(OC4CCOCC4)c(C#N)c3)ccn2)cn1 yielded IC50 of 120

Value of measured IC50 for the entry Cn1ccc(Nc2nccc(-c3ccc(OC4CCOCC4)c(C#N)c3)n2)n1 : 130

The molecule listed as COc1cccc(Nc2nccc(-c3ccc(N)c4c3CNC4=O)n2)c1 has a reported IC50 of 51

Form: molecule = N#Cc1cc(-c2ccnc(Nc3cnn(C4CCNC4)c3)n2)ccc1OC1CCOCC1 (stereo not shown) ; IC50 = 7

# molecule CC(C)(C)OC(=O)N1CC=C(c2c[nH]c3ncc(-c4ccc(S(C)(=O)=O)cc4)cc23)CC1 ; its IC50 = 250

Memo: O=C(NC1CCCC1)N1CC=C(c2c[nH]c3ncc(-c4ccc(OCCN5CCOCC5)cc4)cc23)CC1 , reported IC50: 65

Memo: CC1CN(C(=O)NC2CCCC2)CC=C1c1c[nH]c2ncc(-c3ccc(CN4CCOCC4)s3)cc12 (stereo not shown) , reported IC50: 4

Record N#Cc1cc(-c2ccnc(Nc3ccc(N4CCOCC4)cn3)c2)ccc1OCC1CCC1 , field IC50: 54

Item: Cc1ccc(-c2cccc(-c3cnc(N)c(C(=O)Nc4ccncc4)c3)c2)cc1 | IC50: 7400

----------
pIC50: −log10 of the molar value.
Assay read-out pIC50 on UniProtKB Q9UHD2; records merged from the literature.

                                   compound  observed_measurement
0  N#Cc1cc(-c2ccnc3cc(-c4ccc(C(=O)N5CCN(CCO)CC5)cc4)oc23)ccc1OC1CCOCC1                > 6.52

The recorded pIC50 for CN1CCC(C#N)(c2ccc(Nc3ncc4ccn(CCCNC(=O)C5CCC5)c4n3)cc2)CC1 is > 7.00

What the record says about COc1nc(Nc2cc(-c3ccc(OC4CCN(C(=O)[C@@H](C)O)CC4(F)F)c(C#N)c3)ncn2)ccc1N1CCN(C2COC2)C[C@H]1C (stereo partly drawn) : pIC50 is > 7.00

Please fill in: pIC50 reported for COc1cc(-c2cc3nccc(-c4ccc(OCC5CC5)c(C#N)c4)c3o2)ccc1C(=O)N1CCNCC1 = > 6.52

Noted for N#Cc1cc(-c2c[nH]c3ncc(-c4cnn(C5CCNCC5)c4)cc23)ccc1OC1CCOCC1 : its pIC50 reads > 6.52

Quick note, pIC50 for O=C(NC1CCCC1)N1CC=C(c2c[nH]c3ncc(-c4cccc(S(=O)(=O)N5CCOCC5)c4)cc23)CC1 landed at 7.04

pIC50 for COc1cc(Nc2cc(-c3ccc(OC4CCOCC4)c(C#N)c3)ncn2)ncc1N1CCN(C)CC1 is > 7.00

response.value for CN1CCN(Cc2ccc(-c3cnc4[nH]cc(C5=CCN(C(=O)NC6CCOC6)CC5)c4c3)s2)CC1 (stereo not drawn) (field: pIC50) = 7.89

Reported pIC50 of COc1ccc(-c2cnc3[nH]cc(C4=CCN(C(=O)NC(C)C)CC4)c3c2)cc1OC : 8.60

For record CS(=O)(=O)c1ccc(-c2cnc3[nH]cc(C4=CCN(C(=O)OC5CCCC5)CC4)c3c2)cc1 the listed pIC50 is 6.92

The reported pIC50 of the compound Nc1ncc(-c2cc[nH]c2)cc1C(=O)Nc1ccncc1 was 6.82

# compound CCCC(=O)NCCCn1ccc2cnc(Nc3ccc(N4CCOCC4)nc3)nc21 ; its pIC50 = 6.00 to 7.00

pIC50 for CC1C=C(c2c[nH]c3ncc(-c4ccc(CN5CCN(C)CC5)s4)cc23)CCN1C(=O)NC1CC1 (stereo not drawn) is 8.51

Consider CC(CO)(CCl)COc1ccc(-c2ccnc3cc(-c4ccc(C(=O)N5CCNCC5)cc4)oc23)cc1C#N (stereo not drawn) . Its measured pIC50 is > 6.52

Record COC(=O)c1ccc(-c2cnc(N)c(C(=O)Nc3ccncc3)c2)cc1 . Reported pIC50: 5.80

Record N#Cc1cc(-c2ccnc3cc(-c4ccc(CN5CCOCC5)s4)oc23)ccc1OC1CCOCC1 , field pIC50: > 6.52

Quick note, pIC50 for CC(C)NC(=O)N1CC=C(c2c[nH]c3ncc(-c4ccc(CN5CCCC5)s4)cc23)CC1 landed at 7.74

pIC50 for CCN(CCN(C)C)C(=O)c1ccc(-c2cc3nccc(-c4ccc(OC5CCOCC5)c(C#N)c4)c3s2)cc1OC is > 6.52

Item: COc1nc(Nc2cc(-c3ccc(O[C@@H]4CCN(C(=O)CO)CC4(F)F)c(C#N)c3)ncn2)ccc1N1CCN(C)CC1 | pIC50: > 7.00

So for O=C(c1cccs1)N1CC=C(c2c[nH]c3ncc(-c4ccc(F)c(F)c4)cc23)CC1 , the logged pIC50 turned out to be < 5.00

The compound identified as Nc1ncc(-c2cnn(Cc3ccccc3)c2)cc1C(=O)Nc1ccncc1 registered its pIC50 at 6.92

pIC50 reported for this compound CC(c1ccccc1C(F)(F)F)n1cc(-c2c[nH]c3ncc(-c4cnn(C)c4)cc23)nn1 (stereo not drawn) : 6.00 to 9.30

GET /value?item= COc1nc(Nc2cc(-c3ccc(O[C@H]4CCN(C(=O)[C@H](C)O)CC4(F)F)c(C#N)c3)ncn2)ccc1N1CCN(C2COC2)C[C@H]1C &field=pIC50 returns > 7.00

Reported pIC50 of N#Cc1cc(-c2ccnc3cc(-c4ccc(C(=O)NC5COc6ccccc6C5)cc4)oc23)ccc1OC1CCOCC1 (stereo not drawn) : 5.52 to 6.52
